Catalogue of pIC50 values
Tested on: HUVEC
Assay: Antiproliferative activity against bFGF-driven HUVEC
Assay type: functional, cell-based
Conditions: Homo sapiens
pIC50: −log10 of the molar value.

input: Recall and state the measured pIC50 for O=C(Nc1ccc(Cl)cc1)c1cccnc1NCc1ccncc1 .
output: < 6.00

Turning to the following compound.
input: Recall and state the measured pIC50 for O=C(Nc1cccc(Cl)c1)c1cccnc1NCc1ccncc1 .
output: < 6.00

* * *

Experiment: Bioavailability in rat at 100 mg/kg
Assay type: ADME, organism-based
Details: in vivo
measuredAttribute: bioavailability (%)
Expressed in %, but write only the number.

input: Recall and state the measured bioavailability for O=C(Nc1ccc(Cl)cc1)c1cccnc1NCc1ccncc1 .
output: 45

* * *

Target: Vascular endothelial growth factor receptor 2 (Homo sapiens)
Sequence (P35968 whole entry): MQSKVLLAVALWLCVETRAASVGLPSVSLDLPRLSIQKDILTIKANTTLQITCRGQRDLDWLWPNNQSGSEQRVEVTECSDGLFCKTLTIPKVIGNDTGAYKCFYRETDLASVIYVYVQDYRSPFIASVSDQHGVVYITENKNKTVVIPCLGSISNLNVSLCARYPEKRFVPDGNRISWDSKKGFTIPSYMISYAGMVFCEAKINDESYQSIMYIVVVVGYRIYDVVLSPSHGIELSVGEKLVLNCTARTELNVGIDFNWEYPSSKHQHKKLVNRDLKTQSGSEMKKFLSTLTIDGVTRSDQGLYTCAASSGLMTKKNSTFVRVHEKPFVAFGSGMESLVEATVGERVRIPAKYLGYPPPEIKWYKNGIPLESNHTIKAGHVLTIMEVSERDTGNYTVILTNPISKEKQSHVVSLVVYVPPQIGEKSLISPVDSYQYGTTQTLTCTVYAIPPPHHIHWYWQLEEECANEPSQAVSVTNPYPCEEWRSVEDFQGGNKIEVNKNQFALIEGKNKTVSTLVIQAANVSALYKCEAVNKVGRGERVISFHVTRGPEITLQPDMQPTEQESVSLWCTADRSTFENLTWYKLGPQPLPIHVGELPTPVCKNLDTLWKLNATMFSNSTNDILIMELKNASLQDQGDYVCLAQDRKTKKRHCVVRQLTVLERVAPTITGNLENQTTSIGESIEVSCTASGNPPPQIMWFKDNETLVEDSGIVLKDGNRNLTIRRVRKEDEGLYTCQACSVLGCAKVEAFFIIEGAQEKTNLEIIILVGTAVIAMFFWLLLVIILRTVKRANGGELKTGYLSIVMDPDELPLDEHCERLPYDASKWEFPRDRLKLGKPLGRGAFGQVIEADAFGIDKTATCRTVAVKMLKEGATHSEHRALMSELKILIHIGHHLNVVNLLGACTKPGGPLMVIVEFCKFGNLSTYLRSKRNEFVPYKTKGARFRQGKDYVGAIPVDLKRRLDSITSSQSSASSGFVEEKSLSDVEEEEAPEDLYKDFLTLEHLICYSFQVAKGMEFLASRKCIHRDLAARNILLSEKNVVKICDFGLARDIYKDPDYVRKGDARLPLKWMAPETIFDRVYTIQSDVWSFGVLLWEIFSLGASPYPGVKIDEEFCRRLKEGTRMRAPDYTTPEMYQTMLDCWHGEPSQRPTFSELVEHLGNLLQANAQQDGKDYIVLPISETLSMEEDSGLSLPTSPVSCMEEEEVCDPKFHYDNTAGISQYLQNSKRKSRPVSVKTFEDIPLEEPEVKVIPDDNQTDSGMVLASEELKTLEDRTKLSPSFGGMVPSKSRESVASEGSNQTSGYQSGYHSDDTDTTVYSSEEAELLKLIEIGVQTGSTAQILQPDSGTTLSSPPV
Assay: Inhibition of phosphorylated-Kdr after 30 mins
measuredAttribute: Ki

Answered examples (2):
input: Recall and state the measured Ki for O=C(Nc1ccc(Oc2ccccc2)cc1)c1cccnc1Nc1csc2ccccc12 .
output: > 20 µM

input: Recall and state the measured Ki for O=C(Nc1ccc(Cl)cc1)c1ncccc1NCc1ccncc1 .
output: > 10 µM

Next:
input: Recall and state the measured Ki for O=C(Nc1ccccc1Oc1ccccc1)c1cccnc1NCc1ccncc1 .
output: > 20 µM
